Sequence of the target: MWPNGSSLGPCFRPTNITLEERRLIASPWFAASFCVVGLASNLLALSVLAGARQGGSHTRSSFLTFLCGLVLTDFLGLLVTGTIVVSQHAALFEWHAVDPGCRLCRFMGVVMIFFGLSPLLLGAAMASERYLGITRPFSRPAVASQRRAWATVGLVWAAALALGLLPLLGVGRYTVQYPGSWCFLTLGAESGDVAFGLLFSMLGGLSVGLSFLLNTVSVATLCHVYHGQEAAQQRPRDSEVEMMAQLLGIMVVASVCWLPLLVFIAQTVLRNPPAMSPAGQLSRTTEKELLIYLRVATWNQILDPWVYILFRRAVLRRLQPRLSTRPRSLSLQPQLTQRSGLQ
recorded_endpoint: IC50 (µM)
Report the value in µM with no unit label.

INPUT: Identify measured IC50 corresponding to CCCCCCNC[C@H]1C2CC(CO2)[C@@H]1C/C=C\CCCC(=O)O (stereo partly specified)
OUTPUT: 25

---

Organism: Homo sapiens
Assay: Compound was evaluated for the inhibition of U-46,619 induced aggregation of human platelet rich plasma
Format: functional
Give measured IC50 for each item. Keep answers brief.
Report the value in µM with no unit label.

INPUT: Identify measured IC50 corresponding to O=C(O)CCC/C=C\C[C@H]1C2COC(C2)[C@@H]1CNNC(=O)Nc1ccccc1 (some centres not stated)
OUTPUT: 7

INPUT: Identify measured IC50 corresponding to CCCCCCNC[C@H]1C2CC(CO2)[C@@H]1C/C=C\CCCC(=O)O (some centres not stated)
OUTPUT: 22
